- TEST_PARAMETERS: buffer; pH 7.4; 200.0 µM
Assign 1 to entries whose solubility kinetic meets or exceeds 40 µg/mL; assign 0 to the rest.

COMPOUND | QUALITATIVE_LABEL
CC(=O)Nc1ccc2nc(NC(=O)c3ccco3)sc2c1 | 0
CCN(CC)C1CCN(c2nc3nonc3nc2NCCOC)C1 (stereo unspecified) | 1
Cc1oc(S(=O)(=O)N2CCOCC2)cc1C(=O)Nc1ccc(F)cc1 | 0
COc1ccc(OC)c(S(=O)(=O)NC2CCCCNC2=O)c1 (stereo unspecified) | 1
Cc1[nH]c2ccccc2c1CC#N | 0
COc1cccc(NC(=O)NCCN2CCCCC2)c1 | 0
